This listing pairs variants with measured abundance fitness.
B1: Triacylglycerol hydrolase DDHD2, residues 389 to 447; numbered along this chain, O94830 (parent)
chain: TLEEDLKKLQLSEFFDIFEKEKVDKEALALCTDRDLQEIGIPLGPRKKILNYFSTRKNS

Variants of: B1
Assay: abundance fitness (aPCA) (normalised: wild type 0, dead -1); higher = more abundant; growth selection in yeast, the domain comes from the species named
Conditions: Homo sapiens
Write the number on its own, no unit after it.

Known results for variants:
K57A | -0.102
Q10R | -0.247
E38A | 0.181
K7P | -0.689
E26V | -0.21

Give the value of abundance fitness reported for the following: L50I 0.096

Quote abundance fitness reported for F15E please. -0.029
